Here the recorded OD450 at 0.02 nM is given for each entry.
Target: biotinylated labeled human GPC3 protein (produced in-house) (human, UniProt P51654 25-559, limits assumed, biotinylated (Dojindo, Cat. No. LK03); sites not stated)
Assay: ELISA, biotinylated human GPC3 protein
Give just the number in OD450; leave the unit off.

| binder | unit-string | OD450 at 0.02 nM |
| --- | --- | --- |
| hAb001H1aL1 (antibody, human IgG1, V domains shown, Humanized F2.169.2; VH H1a + VL L1; expressed as human IgG1) VH: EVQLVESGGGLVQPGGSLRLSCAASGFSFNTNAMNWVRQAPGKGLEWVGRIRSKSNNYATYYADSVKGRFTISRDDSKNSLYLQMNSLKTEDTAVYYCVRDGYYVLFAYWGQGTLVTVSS VL: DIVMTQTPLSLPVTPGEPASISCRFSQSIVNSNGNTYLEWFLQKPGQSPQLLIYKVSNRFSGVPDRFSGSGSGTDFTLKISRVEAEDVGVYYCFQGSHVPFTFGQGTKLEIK | OD450 | 0.874 |

Proceed to the following item.
Consider hAb003LH2L1b (antibody, human IgG1, V domains shown, Humanized F2.154.1; VH H2 + VL L1b; expressed as human IgG1) VH: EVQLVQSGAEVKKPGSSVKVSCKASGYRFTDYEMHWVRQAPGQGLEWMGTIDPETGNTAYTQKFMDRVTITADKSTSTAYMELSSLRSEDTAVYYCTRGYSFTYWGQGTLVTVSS VL: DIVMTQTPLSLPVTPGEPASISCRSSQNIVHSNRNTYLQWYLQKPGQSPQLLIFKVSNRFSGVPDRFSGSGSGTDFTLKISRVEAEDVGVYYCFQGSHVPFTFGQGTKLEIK . Its measured OD450 at 0.02 nM is 1.05
